Listed next: entries and their corresponding pIC50.
Test system: KB
Assay: Cytotoxicity against human KB cells by MTT assay
Type: functional, cell-based
pIC50: −log10 of the molar value.

{"Compound": "CCn1cc(C(=O)Nc2cc([N+](=O)[O-])ccc2F)c(=O)c2cc(F)c(N3CCNC(C)C3)c(F)c21 (stereo unspecified)", "pIC50": 5.49}
{"Compound": "CCn1cc(C(=O)Nc2ccc(C)c([N+](=O)[O-])c2)c(=O)c2cc(F)c(N3CCNC(C)C3)c(F)c21 (stereo unspecified)", "pIC50": 5.41}
{"Compound": "CCn1cc(C(=O)Nc2cccc([N+](=O)[O-])c2)c(=O)c2cc(F)c(N3CCNC(C)C3)c(F)c21 (stereo unspecified)", "pIC50": 5.77}
{"Compound": "CCn1cc(C(=O)Nc2ccc(Cl)cn2)c(=O)c2cc(F)c(N3CCNC(C)C3)c(F)c21 (stereo unspecified)", "pIC50": 5.80}
{"Compound": "CCn1cc(C(=O)Nc2nccs2)c(=O)c2cc(F)c(N3CCNC(C)C3)c(F)c21 (stereo unspecified)", "pIC50": 4.36}
{"Compound": "CCn1cc(-c2nc3ccc([N+](=O)[O-])cc3o2)c(=O)c2cc(F)c(N3CCNC(C)C3)c(F)c21 (stereo unspecified)", "pIC50": 6.05}
{"Compound": "CCn1cc(C(=O)NCc2ccc(OC)cc2)c(=O)c2cc(F)c(N3CCNC(C)C3)c(F)c21 (stereo unspecified)", "pIC50": 5.79}
{"Compound": "CCn1cc(C(=O)Nc2ccc(OC(F)(F)F)cc2)c(=O)c2cc(F)c(N3CCNC(C)C3)c(F)c21 (stereo unspecified)", "pIC50": 5.85}
{"Compound": "CCn1cc(C(=O)Nc2ccc(OC)cc2)c(=O)c2cc(F)c(N3CCNC(C)C3)c(F)c21 (stereo unspecified)", "pIC50": 5.59}
{"Compound": "CCn1cc(C(=O)Nc2ccccc2)c(=O)c2cc(F)c(N3CCNC(C)C3)c(F)c21 (stereo unspecified)", "pIC50": 5.36}
{"Compound": "CCn1cc(C(=O)Nc2ccccc2O)c(=O)c2cc(F)c(N3CCNC(C)C3)c(F)c21 (stereo unspecified)", "pIC50": 5.30}
